- Test system: Abutilon theophrasti
- Assay Protocol: Pre-emergence herbicidal action against harmful plants
- Format: in vivo
- Conditions: Abutilon theophrasti, 504 h, dosage 320 g/ha, visual assessment after 3 weeks (Table A), read-out: Herbicidal action against ABUTH
I'd appreciate it if you could supply pest or weed control at 320 g/ha values for the items below.
Quick reminder: number only, in %, skip the unit.

Inquiry: # get_value(readout='pest or weed control at 320 g/ha', item= `CCN(C)C(=O)COc1c(S(C)(=O)=O)ccc(C(=O)C2=C(O)CCCC2=O)c1C(F)(F)F` )
Reply text: 100

Inquiry: # get_value(readout='pest or weed control at 320 g/ha', item= CCN(CC)C(=O)COc1c(S(=O)(=O)CC)ccc(C(=O)C2=C(O)CCCC2=O)c1Cl [Compound S3, reference compound] )
Reply text: 70

Inquiry: # get_value(readout='pest or weed control at 320 g/ha', item= `CCN(CC)C(=O)COc1c(S(=O)(=O)CC)ccc(C(=O)C2=C(O)CCCC2=O)c1C(F)(F)F` )
Reply text: 100

Inquiry: # get_value(readout='pest or weed control at 320 g/ha', item= `CCN(C)C(=O)COc1c(S(=O)(=O)CC)ccc(C(=O)C2=C(O)CCCC2=O)c1C(F)(F)F` )
Reply text: 100

Inquiry: # get_value(readout='pest or weed control at 320 g/ha', item= CCN(C)C(=O)COc1c(S(=O)(=O)CC)ccc(C(=O)C2=C(O)CCCC2=O)c1Cl [Compound S6, reference compound] )
Reply text: 100

Inquiry: # get_value(readout='pest or weed control at 320 g/ha', item= CN(C)C(=O)COc1c(S(C)(=O)=O)ccc(C(=O)C2=C(O)CCCC2=O)c1Cl [Compound S4, reference compound] )
Reply text: 50

Inquiry: # get_value(readout='pest or weed control at 320 g/ha', item= CCN(CC)C(=O)COc1c(S(C)(=O)=O)ccc(C(=O)C2=C(O)CCCC2=O)c1Cl [Compound S2, reference compound] )
Reply text: 40

* * *

I'd appreciate it if you could supply pest or weed control at 80 g/ha values for the items below.
- Test system: Matricaria inodora
- Assay Protocol: Post-emergence herbicidal action against harmful plants
- Format: in vivo
- Conditions: Tripleurospermum inodorum, 504 h, dosage 80 g/ha, visual rating after about 3 weeks (Table D), read-out: Herbicidal action against MATIN
Quick reminder: number only, in %, skip the unit.

Inquiry: # get_value(readout='pest or weed control at 80 g/ha', item= CCN(CC)C(=O)COc1c(S(C)(=O)=O)ccc(C(=O)C2=C(O)CCCC2=O)c1Cl [Compound S2, reference compound] )
Reply text: 70

Inquiry: # get_value(readout='pest or weed control at 80 g/ha', item= CCN(C)C(=O)COc1c(S(C)(=O)=O)ccc(C(=O)C2=C(O)CCCC2=O)c1C(F)(F)F [Compound E7] )
Reply text: 100

Inquiry: # get_value(readout='pest or weed control at 80 g/ha', item= CCN(C)C(=O)COc1c(S(C)(=O)=O)ccc(C(=O)C2=C(O)CCCC2=O)c1Cl [Compound S7, reference compound] )
Reply text: 80

Inquiry: # get_value(readout='pest or weed control at 80 g/ha', item= CN(C)C(=O)COc1c(Cl)ccc(C(=O)C2=C(O)CCCC2=O)c1C(F)(F)F [Compound E1] )
Reply text: 100

Inquiry: # get_value(readout='pest or weed control at 80 g/ha', item= CCN(CC)C(=O)COc1c(S(=O)(=O)CC)ccc(C(=O)C2=C(O)CCCC2=O)c1C(F)(F)F [Compound E3] )
Reply text: 90

Inquiry: # get_value(readout='pest or weed control at 80 g/ha', item= CN(C)C(=O)COc1c(S(C)(=O)=O)ccc(C(=O)C2=C(O)CCCC2=O)c1Cl [Compound S4, reference compound] )
Reply text: 70

Inquiry: # get_value(readout='pest or weed control at 80 g/ha', item= CCN(CC)C(=O)COc1c(S(C)(=O)=O)ccc(C(=O)C2=C(O)CCCC2=O)c1C(F)(F)F [Compound E2] )
Reply text: 100

Inquiry: # get_value(readout='pest or weed control at 80 g/ha', item= CN(C)C(=O)COc1c(S(C)(=O)=O)ccc(C(=O)C2=C(O)CCCC2=O)c1C(F)(F)F [Compound E4] )
Reply text: 90

Inquiry: # get_value(readout='pest or weed control at 80 g/ha', item= CCN(CC)C(=O)COc1c(S(=O)(=O)CC)ccc(C(=O)C2=C(O)CCCC2=O)c1Cl [Compound S3, reference compound] )
Reply text: 70

Inquiry: # get_value(readout='pest or weed control at 80 g/ha', item= CCN(C)C(=O)COc1c(S(=O)(=O)CC)ccc(C(=O)C2=C(O)CCCC2=O)c1Cl [Compound S6, reference compound] )
Reply text: 80

Inquiry: # get_value(readout='pest or weed control at 80 g/ha', item= CCN(C)C(=O)COc1c(S(=O)(=O)CC)ccc(C(=O)C2=C(O)CCCC2=O)c1C(F)(F)F [Compound E6] )
Reply text: 100

Inquiry: # get_value(readout='pest or weed control at 80 g/ha', item= CN(C)C(=O)COc1c(Cl)ccc(C(=O)C2=C(O)CCCC2=O)c1Cl [Compound S1, reference compound] )
Reply text: 100

* * *

- Test system: Amaranthus retroflexus
- Assay Protocol: Post-emergence herbicidal action against harmful plants
- Type: in vivo
- Conditions: 504 h, dosage 80 g/ha, visual rating after about 3 weeks (Table D), read-out: Herbicidal action against AMARE
// FALSE strictly below 80% in pest or weed control at 80 g/ha; TRUE otherwise

Inquiry: Quick check, pest or weed control at 80 g/ha >= 80%? `CN(C)C(=O)COc1c(S(C)(=O)=O)ccc(C(=O)C2=C(O)CCCC2=O)c1C(F)(F)F`
Reply text: TRUE

Inquiry: Quick check, pest or weed control at 80 g/ha >= 80%? CCN(C)C(=O)COc1c(S(C)(=O)=O)ccc(C(=O)C2=C(O)CCCC2=O)c1Cl [Compound S7, reference compound]
Reply text: FALSE

Inquiry: Quick check, pest or weed control at 80 g/ha >= 80%? `CCN(CC)C(=O)COc1c(S(=O)(=O)CC)ccc(C(=O)C2=C(O)CCCC2=O)c1C(F)(F)F`
Reply text: TRUE

Inquiry: Quick check, pest or weed control at 80 g/ha >= 80%? `CCN(C)C(=O)COc1c(S(=O)(=O)CC)ccc(C(=O)C2=C(O)CCCC2=O)c1C(F)(F)F`
Reply text: TRUE

Inquiry: Quick check, pest or weed control at 80 g/ha >= 80%? CCN(CC)C(=O)COc1c(S(C)(=O)=O)ccc(C(=O)C2=C(O)CCCC2=O)c1Cl [Compound S2, reference compound]
Reply text: TRUE

Inquiry: Quick check, pest or weed control at 80 g/ha >= 80%? CCN(CC)C(=O)COc1c(S(C)(=O)=O)ccc(C(=O)C2=C(O)CCCC2=O)c1C(F)(F)F [Compound E2]
Reply text: TRUE

Inquiry: Quick check, pest or weed control at 80 g/ha >= 80%? CCN(CC)C(=O)COc1c(S(=O)(=O)CC)ccc(C(=O)C2=C(O)CCCC2=O)c1Cl [Compound S3, reference compound]
Reply text: TRUE

Inquiry: Quick check, pest or weed control at 80 g/ha >= 80%? CN(C)C(=O)COc1c(S(C)(=O)=O)ccc(C(=O)C2=C(O)CCCC2=O)c1Cl [Compound S4, reference compound]
Reply text: FALSE

Inquiry: Quick check, pest or weed control at 80 g/ha >= 80%? `CCN(C)C(=O)COc1c(S(C)(=O)=O)ccc(C(=O)C2=C(O)CCCC2=O)c1C(F)(F)F`
Reply text: TRUE

* * *

- System: Avena fatua
- Assay Protocol: Pre-emergence herbicidal action against harmful plants
- Type: in vivo
- Conditions: dosage 320 g/ha, visual assessment after 3 weeks (Table A)
I'd appreciate it if you could supply Herbicidal action against AVEFA values for the items below.
Quick reminder: number only, in %, skip the unit.

Inquiry: // fetch Avena fatua Herbicidal action against AVEFA for `CCN(C)C(=O)COc1c(S(C)(=O)=O)ccc(C(=O)C2=C(O)CCCC2=O)c1C(F)(F)F`
Reply text: 80

Inquiry: // fetch Avena fatua Herbicidal action against AVEFA for CN(C)C(=O)COc1c(Cl)ccc(C(=O)C2=C(O)CCCC2=O)c1Cl [Compound S1, reference compound]
Reply text: 20

Inquiry: // fetch Avena fatua Herbicidal action against AVEFA for CN(C)C(=O)COc1c(Cl)ccc(C(=O)C2=C(O)CCCC2=O)c1C(F)(F)F [Compound E1]
Reply text: 90

Inquiry: // fetch Avena fatua Herbicidal action against AVEFA for CCN(C)C(=O)COc1c(S(C)(=O)=O)ccc(C(=O)C2=C(O)CCCC2=O)c1Cl [Compound S7, reference compound]
Reply text: 0

* * *

I'd appreciate it if you could supply pest or weed control at 80 g/ha values for the items below.
- System: Fallopia convolvulus
- Assay Protocol: Post-emergence herbicidal action against harmful plants
- Format: in vivo
- Conditions: 504 h, dosage 80 g/ha, visual rating after about 3 weeks (Table D), read-out: Herbicidal action against POLCO
- Text: The abbreviations used in the tables below denote: • ABUTH Abutilon theophrasti • AMARE Amaranthus retroflexus • ECHCG Echinochloa crus galli • PHBPU Phartoitis purpureum • STEME Stellaria media • ALOMY Alopecurus myosuroides • AVEFA Avena fatua • MATIN Matricaria inodora • POLCO Fallopia convolvulus • VERPE Veronica persica 1. […]
Quick reminder: number only, in %, skip the unit.

Inquiry: # get_value(readout='pest or weed control at 80 g/ha', item= CCN(CC)C(=O)COc1c(S(=O)(=O)CC)ccc(C(=O)C2=C(O)CCCC2=O)c1Cl [Compound S3, reference compound] )
Reply text: 40

Inquiry: # get_value(readout='pest or weed control at 80 g/ha', item= CCN(C)C(=O)COc1c(S(=O)(=O)CC)ccc(C(=O)C2=C(O)CCCC2=O)c1Cl [Compound S6, reference compound] )
Reply text: 0

Inquiry: # get_value(readout='pest or weed control at 80 g/ha', item= CCS(=O)(=O)c1ccc(C(=O)C2=C(O)CCCC2=O)c(C(F)(F)F)c1OCC(=O)N(C)C [Compound E5] )
Reply text: 80

Inquiry: # get_value(readout='pest or weed control at 80 g/ha', item= CN(C)C(=O)COc1c(Cl)ccc(C(=O)C2=C(O)CCCC2=O)c1C(F)(F)F [Compound E1] )
Reply text: 100

Inquiry: # get_value(readout='pest or weed control at 80 g/ha', item= CCS(=O)(=O)c1ccc(C(=O)C2=C(O)CCCC2=O)c(Cl)c1OCC(=O)N(C)C [Compound S5, reference compound] )
Reply text: 20

Inquiry: # get_value(readout='pest or weed control at 80 g/ha', item= CN(C)C(=O)COc1c(S(C)(=O)=O)ccc(C(=O)C2=C(O)CCCC2=O)c1Cl [Compound S4, reference compound] )
Reply text: 0

Inquiry: # get_value(readout='pest or weed control at 80 g/ha', item= CCN(C)C(=O)COc1c(S(C)(=O)=O)ccc(C(=O)C2=C(O)CCCC2=O)c1C(F)(F)F [Compound E7] )
Reply text: 80

Inquiry: # get_value(readout='pest or weed control at 80 g/ha', item= CCN(C)C(=O)COc1c(S(C)(=O)=O)ccc(C(=O)C2=C(O)CCCC2=O)c1Cl [Compound S7, reference compound] )
Reply text: 10

Inquiry: # get_value(readout='pest or weed control at 80 g/ha', item= CN(C)C(=O)COc1c(Cl)ccc(C(=O)C2=C(O)CCCC2=O)c1Cl [Compound S1, reference compound] )
Reply text: 60

Inquiry: # get_value(readout='pest or weed control at 80 g/ha', item= CCN(CC)C(=O)COc1c(S(=O)(=O)CC)ccc(C(=O)C2=C(O)CCCC2=O)c1C(F)(F)F [Compound E3] )
Reply text: 90

Inquiry: # get_value(readout='pest or weed control at 80 g/ha', item= CN(C)C(=O)COc1c(S(C)(=O)=O)ccc(C(=O)C2=C(O)CCCC2=O)c1C(F)(F)F [Compound E4] )
Reply text: 70

Inquiry: # get_value(readout='pest or weed control at 80 g/ha', item= CCN(C)C(=O)COc1c(S(=O)(=O)CC)ccc(C(=O)C2=C(O)CCCC2=O)c1C(F)(F)F [Compound E6] )
Reply text: 90
